Target: T1, PTPRG-Fc (ECD of human PTPRG, aa 20-736, fused to human Fc gamma 1) (human, UniProt P23470 20-736)
T1 construct: Made in-house in Expi293 cells; Used in ELISA and SPR; also called recombinant PTPRG-Fc; PTRPG; not shown: human IgG1 Fc (Fc gamma 1) after the hinge
T1 sequence: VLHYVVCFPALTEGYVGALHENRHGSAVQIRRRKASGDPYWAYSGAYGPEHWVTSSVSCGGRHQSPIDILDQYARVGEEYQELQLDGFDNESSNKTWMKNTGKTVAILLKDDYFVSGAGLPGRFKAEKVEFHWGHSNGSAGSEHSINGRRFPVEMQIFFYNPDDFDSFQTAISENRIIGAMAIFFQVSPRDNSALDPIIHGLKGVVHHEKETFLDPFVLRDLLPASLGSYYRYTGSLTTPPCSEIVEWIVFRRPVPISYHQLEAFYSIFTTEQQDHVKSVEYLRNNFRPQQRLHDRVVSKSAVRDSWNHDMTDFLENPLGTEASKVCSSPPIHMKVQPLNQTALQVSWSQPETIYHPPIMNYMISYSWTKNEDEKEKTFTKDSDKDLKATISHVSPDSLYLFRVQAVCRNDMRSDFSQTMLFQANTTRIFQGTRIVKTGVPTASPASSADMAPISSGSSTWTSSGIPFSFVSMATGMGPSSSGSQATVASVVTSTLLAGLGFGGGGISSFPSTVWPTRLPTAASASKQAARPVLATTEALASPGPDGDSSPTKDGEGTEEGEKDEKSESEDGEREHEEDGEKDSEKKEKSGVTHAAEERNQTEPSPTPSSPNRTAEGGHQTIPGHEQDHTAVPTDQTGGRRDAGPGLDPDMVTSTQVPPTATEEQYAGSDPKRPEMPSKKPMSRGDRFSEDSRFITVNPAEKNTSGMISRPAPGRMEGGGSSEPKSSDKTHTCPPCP
Assay: SPR, Biacore X100; PTPRG-Fc captured by anti-human Fc on CM5, Fab injected; mean of triplicates (SD)
Experimental: A Biacore X100 instrument was used to determine the monovalent affinities of the C-1 cluster of Fabs for recombinant PTPRG-Fc, as previously described. […] Each experiment was repeated in triplicate. Rate constants (kₒₙ, koff, and Kd) were calculated using the Biacore evaluation software (Cytiva).
MEASURED PARAMETER: koff (s⁻¹)
# number only, unit s⁻¹ dropped from output

HW-42 Fab (chimeric rabbit/human, His-tagged) (Fab, V domains shown, Monovalent Fab: rbVH-huCH1 and rbVL-huCL, His-tagged, made in E. coli from pET11a) VH: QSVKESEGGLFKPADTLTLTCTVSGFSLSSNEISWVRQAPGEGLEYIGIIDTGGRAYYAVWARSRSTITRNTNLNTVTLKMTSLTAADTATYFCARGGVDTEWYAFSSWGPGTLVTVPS VL: SFVLTQPASVQVNLGQTVSLTCTADTLSRRYASWYQQKPGQAPVLLIFRDTSRPSGVPDRFSGSSSGDTATLTISGAQAGDEADYYCATSDGSGSNYQYVFGGGTQLTVT ... 0.00429

Let us examine a further case.
Form field: reported koff of HW-17 Fab (chimeric rabbit/human, His-tagged) (Fab, V domains shown, Monovalent Fab: rbVH-huCH1 and rbVL-huCL, His-tagged, made in E. coli from pET11a) VH: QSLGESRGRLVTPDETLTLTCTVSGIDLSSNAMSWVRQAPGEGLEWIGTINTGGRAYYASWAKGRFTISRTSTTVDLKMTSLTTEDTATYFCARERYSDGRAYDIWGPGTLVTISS VL: SFVLTQPASVQVNLGQTVSLTCTADTLSRRYASWYQQKPGQAPVLLIYTDSNRPSGIPDRFSGSSSGNTATLTISGAQAGDEADYYCATDDGSGSIYQYVFGGGTQLTVT
0.00158
